Hello, the source for this data is paper PMC8580996, in case you need it.

Molecular target: FIH (Homo sapiens, UniProt Q9NWT6)
Sequence (Q9NWT6 whole entry): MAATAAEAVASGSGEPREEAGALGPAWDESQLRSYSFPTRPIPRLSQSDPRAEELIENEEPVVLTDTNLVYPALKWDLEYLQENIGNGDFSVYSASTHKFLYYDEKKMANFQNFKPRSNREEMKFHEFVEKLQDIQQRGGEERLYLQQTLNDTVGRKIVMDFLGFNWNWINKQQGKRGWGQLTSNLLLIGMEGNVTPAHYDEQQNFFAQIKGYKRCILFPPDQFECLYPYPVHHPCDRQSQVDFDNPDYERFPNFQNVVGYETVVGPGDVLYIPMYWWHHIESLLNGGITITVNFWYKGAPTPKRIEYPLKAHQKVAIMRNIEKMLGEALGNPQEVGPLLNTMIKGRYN
Assay: SPE-MS FIH turnover (cosubstrate) assay in the absence of 2OG
Type: biochemical
Conditions: HIF-1α788–822 substrate, 330 μM 2OG or 2OG derivative, no 2OG, t = 15 min
metric: FIH activity, %-substrate conversion

[
  {
    "compound": "COc1ccc(CC(CC(=O)O)C(=O)C(=O)O)cc1 (stereo not shown)",
    "readout value": "^c<1% ^d<1%"
  },
  {
    "compound": "O=C(O)C(=O)c1ccc(C(=O)O)c(F)c1",
    "readout value": "^c<1% ^d<1%"
  },
  {
    "compound": "O=C(O)C(=O)[C@@H]1[C@@H](C(=O)O)[C@@H]2C=C[C@H]1C2 (racemic)",
    "readout value": "^c<1% ^d<1%"
  },
  {
    "compound": "CCCC(CC(=O)C(=O)O)C(=O)O (stereo not shown)",
    "readout value": "~5%"
  },
  {
    "compound": "CCC(CC(=O)O)C(=O)C(=O)O (stereo not shown)",
    "readout value": "~2%"
  },
  {
    "compound": "O=C(O)C(=O)C1CCC(C(=O)O)C1 (stereo not shown)",
    "readout value": "~2%"
  },
  {
    "compound": "O=C(O)C(=O)c1ccccc1C(=O)O",
    "readout value": "^c<1% ^d<1%"
  },
  {
    "compound": "CC(CC(=O)C(=O)O)C(=O)O (stereo not shown)",
    "readout value": "~45%"
  },
  {
    "compound": "O=C(O)C(=O)c1ccc(C(=O)O)c(Br)c1",
    "readout value": "^c<1% ^d<1%"
  },
  {
    "compound": "O=C(O)CCC(=O)C(=O)O [2OG, 2-Oxoglutarate]",
    "readout value": "~50%"
  }
]

---

Biological target: FIH (Homo sapiens, UniProt Q9NWT6)
Assay: SPE-MS FIH turnover (cosubstrate) assay in the absence of 2OG
Type: biochemical
Conditions: HIF-1α788–822 substrate, 330 μM 2OG or 2OG derivative, no 2OG, t = 15 min
metric: FIH activity, %-substrate conversion

[
  {
    "molecule": "CC(CC(=O)O)C(=O)C(=O)O (stereo not drawn)",
    "experimental system": "FIH (Homo sapiens, UniProt Q9NWT6)",
    "readout value": "~55%"
  },
  {
    "molecule": "O=C(O)CC(Cc1ccc(F)cc1)C(=O)C(=O)O (stereo not drawn)",
    "experimental system": "FIH (Homo sapiens, UniProt Q9NWT6)",
    "readout value": "^c<1% ^d<1%"
  },
  {
    "molecule": "CC(C)(CC(=O)C(=O)O)C(=O)O",
    "experimental system": "FIH (Homo sapiens, UniProt Q9NWT6)",
    "readout value": "< 1%"
  },
  {
    "molecule": "O=C(O)C(=O)C12CCC(C(=O)O)(CC1)CC2",
    "experimental system": "FIH (Homo sapiens, UniProt Q9NWT6)",
    "readout value": "^c<1% ^d<1%"
  },
  {
    "molecule": "CC(C)(C)CCC(CC(=O)O)C(=O)C(=O)O (stereo not drawn)",
    "experimental system": "FIH (Homo sapiens, UniProt Q9NWT6)",
    "readout value": "^c<1% ^d<1%"
  },
  {
    "molecule": "O=C(O)C(=O)CC(CCCc1ccccc1)C(=O)O (stereo not drawn)",
    "experimental system": "FIH (Homo sapiens, UniProt Q9NWT6)",
    "readout value": "^c<1% ^d<1%"
  },
  {
    "molecule": "CC1(C)C(C(=O)O)C1C(=O)C(=O)O (stereo not drawn)",
    "experimental system": "FIH (Homo sapiens, UniProt Q9NWT6)",
    "readout value": "^c<1% ^d<1%"
  },
  {
    "molecule": "O=C(O)C(=O)c1ccc(C(=O)O)cc1F",
    "experimental system": "FIH (Homo sapiens, UniProt Q9NWT6)",
    "readout value": "^c<1% ^d<1%"
  },
  {
    "molecule": "O=C(O)C(=O)c1cscc1C(=O)O",
    "experimental system": "FIH (Homo sapiens, UniProt Q9NWT6)",
    "readout value": "^c<1% ^d<1%"
  },
  {
    "molecule": "CC1(C)c2ccccc2-c2ccc(CC(CC(=O)O)C(=O)C(=O)O)cc21 (stereo not drawn)",
    "experimental system": "FIH (Homo sapiens, UniProt Q9NWT6)",
    "readout value": "^c<1% ^d<1%"
  },
  {
    "molecule": "Cc1cc(C)cc(CC(CC(=O)O)C(=O)C(=O)O)c1 (stereo not drawn)",
    "experimental system": "FIH (Homo sapiens, UniProt Q9NWT6)",
    "readout value": "^c<1% ^d<1%"
  },
  {
    "molecule": "CCC(CC(=O)C(=O)O)C(=O)O (stereo not drawn)",
    "experimental system": "FIH (Homo sapiens, UniProt Q9NWT6)",
    "readout value": "~10%"
  },
  {
    "molecule": "O=C(O)C(=O)c1ccc(C(=O)O)s1",
    "experimental system": "FIH (Homo sapiens, UniProt Q9NWT6)",
    "readout value": "^c<1% ^d<1%"
  },
  {
    "molecule": "O=C(O)CC(Cc1ccc(OC(F)(F)F)cc1)C(=O)C(=O)O (stereo not drawn)",
    "experimental system": "FIH (Homo sapiens, UniProt Q9NWT6)",
    "readout value": "^c<1% ^d<1%"
  },
  {
    "molecule": "O=C(O)C(=O)CC(Cc1ccc2ccccc2c1)C(=O)O (stereo not drawn)",
    "experimental system": "FIH (Homo sapiens, UniProt Q9NWT6)",
    "readout value": "^c<1% ^d<1%"
  },
  {
    "molecule": "CC(C)CC(CC(=O)C(=O)O)C(=O)O (stereo not drawn)",
    "experimental system": "FIH (Homo sapiens, UniProt Q9NWT6)",
    "readout value": "< 1%"
  },
  {
    "molecule": "O=C(O)C(=O)c1ccc(C(=O)O)cc1Br",
    "experimental system": "FIH (Homo sapiens, UniProt Q9NWT6)",
    "readout value": "^c<1% ^d<1%"
  },
  {
    "molecule": "O=C(O)C(=O)CC(Cc1ccccc1)C(=O)O (stereo not drawn)",
    "experimental system": "FIH (Homo sapiens, UniProt Q9NWT6)",
    "readout value": "^c<1% ^d<1%"
  },
  {
    "molecule": "CC(C)(C)CCC(CC(=O)C(=O)O)C(=O)O (stereo not drawn)",
    "experimental system": "FIH (Homo sapiens, UniProt Q9NWT6)",
    "readout value": "^c<1% ^d<1%"
  },
  {
    "molecule": "O=C(O)C(=O)c1cccc(C(=O)O)c1",
    "experimental system": "FIH (Homo sapiens, UniProt Q9NWT6)",
    "readout value": "^c<1% ^d<1%"
  },
  {
    "molecule": "O=C(O)CC(Cc1ccccc1)C(=O)C(=O)O (stereo not drawn)",
    "experimental system": "FIH (Homo sapiens, UniProt Q9NWT6)",
    "readout value": "^c<1% ^d<1%"
  }
]
